Measured values drawn from patent US20170305882A1 for this set.

# Tested on: histone 2A phosphorylation (kinase activity of Bub1)
# assay-procedure: H2A Formation-Assay (cell-based mechanistic assay, co-treatment with Nocodazole)
# run-conditions: 16 h, read-out: Biological Assay 4.1: H2A Formation IC50
parameter: pIC50
Remember the convention: pIC50 equals -log10 of concentration in molar.

CCOc1cc(F)c(Cn2nc(-c3ncc(OCCCO)c(Nc4ccnc(NC(C)=O)c4C)n3)c3ccccc32)c(F)c1 ... 8.77
OCCCOc1cnc(-c2nn(Cc3c(F)cc(OCC(F)F)cc3F)c3ccccc23)nc1Nc1ccncc1Cl ... 7.85
Cc1nccc(Nc2nc(-c3nn(Cc4c(F)cc(OCC(F)F)cc4F)c4ccccc34)ncc2OCCCO)n1 ... 7.59

Tell me reported pIC50 for CCOc1cc(F)c(Cn2nc(-c3ncc(OCCCO)c(Nc4ccncc4C)n3)c3ccccc32)c(F)c1 , tested with histone 2A phosphorylation (kinase activity of Bub1).
7.51
